Ref: the supplement of paper PMC13380429

# Test system: A549-ACE2 infected with SARS-CoV-2
# procedureDetails: cell count relative to DMSO; higher = less toxic
# particulars: 30 µM; 24 h
cell count overview

>  <smilesStructure>
Cn1cc(C2=C(c3ccc(Cl)cc3Cl)C(=O)NC2=O)c2ccccc21

>  <cell count (%)>
91

$$$$
>  <smilesStructure>
COC(=O)C[C@](O)(CCCC(C)(C)O)C(=O)O[C@@H]1C(OC)=C[C@]23CCCN2CCc2cc4c(cc2[C@H]13)OCO4

>  <cell count (%)>
30

$$$$
>  <smilesStructure>
CN(Cc1ccc(C(C)(C)C)cc1)Cc1cccc2ccccc12

>  <cell count (%)>
110

$$$$
>  <smilesStructure>
OCCN1CCN(CC/C=C2/c3ccccc3Sc3ccc(C(F)(F)F)cc32)CC1

>  <cell count (%)>
96

$$$$
